These entries and their values trace back to ChEMBL document CHEMBL1131402.

- Test system: Human immunodeficiency virus 1
- assay.overview: Antiviral activity was assessed against M36M/I, I54I/V, V82F/A/S/T viral strains isolated from patient-313 pretreated with ritonavir(3 fold) at 85th day
- Assay type: functional, organism-based
parameter.measured: pEC50
Formally, pEC50 is defined as -log10 of the concentration c, with c in mol/L.

Query: Suppose we examine the molecule "CC(C)c1nc(COC(=O)N[C@H](C(=O)N[C@@H](Cc2ccccc2)[C@H](O)CN2CCN(Cc3ccc4c(c3)OCO4)C[C@H]2C(=O)NC(C)(C)C)C(C)C)cs1" ; what pEC50 value has been reported?
Reply: 7.57
